EC50 values, listed per item
biological target: Glycogen synthase kinase-3 beta (Homo sapiens, UniProt P49841); assay: concentration-response blocking of human GSK3B – biochemical, luminescence, cell-free homogeneous, retest, dose response (AID 434954)
Sequence (P49841 whole entry): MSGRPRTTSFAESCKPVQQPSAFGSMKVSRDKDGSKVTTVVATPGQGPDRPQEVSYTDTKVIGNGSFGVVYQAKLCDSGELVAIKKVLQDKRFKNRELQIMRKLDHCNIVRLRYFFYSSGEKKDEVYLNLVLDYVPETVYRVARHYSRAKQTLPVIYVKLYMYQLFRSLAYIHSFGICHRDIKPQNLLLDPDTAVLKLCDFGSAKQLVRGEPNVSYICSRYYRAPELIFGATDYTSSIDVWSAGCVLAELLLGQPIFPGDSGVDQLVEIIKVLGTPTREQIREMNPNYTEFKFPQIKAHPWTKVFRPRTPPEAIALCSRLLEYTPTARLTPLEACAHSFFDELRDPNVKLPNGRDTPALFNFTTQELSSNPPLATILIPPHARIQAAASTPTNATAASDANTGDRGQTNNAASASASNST
Answer format: numeric, µM implied, no suffix.

The cases that follow already have their EC50 on record.
* O=c1c2ccccc2cnn1-c1nc2ccccc2[nH]1 | 25.1
* CN=C(NC#N)SCC(=O)c1ccc(Cl)cc1Cl | 3.19
* O=C(Nc1ccc(Cl)cc1)Nc1ccccn1 | 43.7
* Cc1nn(-c2ccccc2)cc1CN=O | 71.2
* COC(=O)CSc1ccc2nnc(-c3ccc(F)cc3)n2n1 | 9.3

*Q* Which EC50 reading was recorded for the compound `CCOc1cc(C(=O)OCC(=O)Nc2ccc(Cl)cn2)ccc1OCC(=O)N1CCOCC1` ?
*A* 61.8

*Q* Could you tell me which EC50 is on file for `COCCCNc1nc(N)c([N+](=O)[O-])c(NCc2ccccc2)n1` ?
*A* 5.95

*Q* Quick check: EC50 of `Cn1c(SCC(=O)Nc2ccc(Cl)cn2)nnc1C1CC1` ?
*A* 23.7

*Q* Dear colleague, I am looking for the recorded EC50 of the following compound: `Cc1ccnc(NC(=O)CCC(=O)N(CC(=O)NCc2ccccc2)Cc2cccs2)c1`
*A* 16.9

*Q* Query (compound): `CCOc1ccccc1C=NNC(=O)c1nnn(-c2nonc2N)c1CN1CCCCCC1` ; field requested: EC50
*A* 0.105

*Q* Requested field: EC50. Item: `S=c1[nH]c(-c2ccccc2)cn1N=Cc1ccncc1`
*A* 140

*Q* May I ask what EC50 has been recorded for `CC(=O)N1CCc2c(sc(NC(=O)CCS(=O)(=O)c3ccccc3)c2C(N)=O)C1` ?
*A* 122

// provenance: BindingDB's records for doi:10.7270/Q2TX3CTT
